Target: T1, CD27 expressed on the cell surface (HT1080_CD27 cells) (human, UniProt P26842 20-260)
T1 construct: whole, on cells; also called K562_CD27
T1 sequence (looked up): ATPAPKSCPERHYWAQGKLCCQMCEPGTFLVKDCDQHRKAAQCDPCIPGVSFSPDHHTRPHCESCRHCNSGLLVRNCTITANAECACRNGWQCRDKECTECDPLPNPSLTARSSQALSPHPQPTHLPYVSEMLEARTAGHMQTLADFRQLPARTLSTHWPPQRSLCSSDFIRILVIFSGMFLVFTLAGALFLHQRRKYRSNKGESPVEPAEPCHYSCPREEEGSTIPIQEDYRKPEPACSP
Assay: cellular binding assay, HT1080_CD27 cells; also: test concentration or dose not given here
Please go through the items and note down their Cellular binding assay [RFU].
State the result as a value with its unit after it.

See these solved cases before continuing.
{"columns": ["Binder", "Endpoint", "Result"],
 "data": [
  ["P018.S.04.A.B01 (antibody, V domains shown, V regions on human Ig constant parts; also called AB27_66) VH: QEQLVESGGDLVKPGGTLTLTCTASGFSFSSSYYMSWVRQAPGKGLEWIACIDTADAYTYYASWAKGRFTISKTSSTTVSLQMTSLTAADTATYFCARERIAYNTDYFNLWGPGTLVTVSS VL: AQVLTQTPSPVSAAVGGTVTISCQSSQSLYNYNNLAWYQQKPGQPPKLLIYSASNLASGVPSRFGGSGSGTQFTLTISDLQSDDAATYYCQGYYSGAVYTFGGGTEVVVK", "Cellular binding assay [RFU]", "330 RFU"],
  ["P018.S.05.A.A04 (antibody, V domains shown, V regions on human Ig constant parts; also called AB27_81) VH: QEQLVESGGDLVKPGASLTLTCTASGIDFSSSYYMSWVRQAPGKGLEWIACIDTVDDYTYYASWAKGRFTISKTSSTTVSLQMTSLTAADTATYFCARERIDNNTDCFDLWGPGTLVTISS VL: AQVLTQTPSPVSAAVGGTVTISCQSSQSVVSKNRLAWYQQKPGQPPKLLIWLASKLASGVPSRFRGSGSGTQFTLTISGVQSDDAATYYCQGYYSGAIYAFGGGTDVVVK", "Cellular binding assay [RFU]", "369 RFU"]
]}

Okay, now this binder:
Please report the recorded Cellular binding assay [RFU] for P018.S.10.A.C05 (antibody, V domains shown, V regions on human Ig constant parts; also called AB27_173) VH: QSVEETGGRLVTPGTPLTLTCAASGVSLSGYYAMSWVRQAPGKGLEWIGYLDATGSTYYASWVKGRFIISRPSTTVDLQITSPTIEDTATYFCARGSYDGVGYNWGLWGQGTLVTVSS VL: DIVMTQTPASVSEPVGGTVTIKCQASESIYNGLAWYQQKPGQPPKRLIYGASTLTSGVPSRFKGSGSGTEFTLTISDLESDDAATYYCQSNYGSGSRSNYIFGGGTEVVVK .
11 RFU
